Cited source: patent US20250297029A1

Biological target: T1, GPC3 (UniProt P51654 25-559, limits assumed)
T1 construct: also called antigen GPC3; Glypican 3
T1 sequence (P51654 25-559 limits assumed): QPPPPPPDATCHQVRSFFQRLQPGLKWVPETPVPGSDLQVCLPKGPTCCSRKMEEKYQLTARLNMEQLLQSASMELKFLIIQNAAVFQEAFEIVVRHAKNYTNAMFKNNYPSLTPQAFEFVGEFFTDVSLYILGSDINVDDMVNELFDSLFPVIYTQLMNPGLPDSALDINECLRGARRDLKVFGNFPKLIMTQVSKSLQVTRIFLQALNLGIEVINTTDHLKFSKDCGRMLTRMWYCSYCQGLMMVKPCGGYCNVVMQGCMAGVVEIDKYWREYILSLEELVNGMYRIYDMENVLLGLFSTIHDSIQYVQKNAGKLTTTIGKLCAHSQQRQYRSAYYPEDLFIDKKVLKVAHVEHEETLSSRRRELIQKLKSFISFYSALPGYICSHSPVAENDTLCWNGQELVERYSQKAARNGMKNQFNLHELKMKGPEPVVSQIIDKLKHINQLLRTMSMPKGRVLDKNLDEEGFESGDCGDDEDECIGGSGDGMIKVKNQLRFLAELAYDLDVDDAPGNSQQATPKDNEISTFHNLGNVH
Assay: SPR (Biacore T200); scFv-Fc captured by anti-human Fc pAb, GPC3 10-320 nM in flow
recorded metric: koff (s⁻¹)

- binder: "VL1.M2-VH2.M1 humanized scFv (scFv, not shown: a dimerising Fc or GST, Crude scFv with Fc tag from HEK293 supernatant) scFv: DIVMTQTPLSLSVTPGQPASISCRSSQSLVHSNGNTYLHWYLQKPGQSPQLLIYKVSSRFSGVPDRFSGSGSGTDFTLKISRVEAEDVGVYYCSQNTHVPPTFGQGTKVEIKGGGGSGGGGSGGGGSQVQLVQSGAEVKKPGASVKVSCKASGYTFTSYEMHWVRQAPGQGLEWMGALDPKTGDTAYSQKFKGRVTLTADTSTSTVYMELSSLRSEDTAVYYCTRFYSYTYWGQGTLVTVSS"
  unit info: "s⁻¹"
  observed value: 0.00051
- binder: "VL1-VH2.M6 humanized scFv (scFv, not shown: a dimerising Fc or GST, Crude scFv with Fc tag from HEK293 supernatant) scFv: DIVMTQTPLSLSVTPGQPASISCRSSQSLVHSNGNTYLHWYLQKPGQSPQLLIYKVSNRFSGVPDRFSGSGSGTDFTLKISRVEAEDVGVYYCSQNTHVPPTFGQGTKVEIKGGGGSGGGGSGGGGSQVQLVQSGAEVKKPGASVKVSCKASGYTFTSYEMHWVRQAPGQGLEWMGALDPKTGDTAYSQKFQGRVTLTADTSTSTVYMELSSLRSEDTAVYYCTRFYSYTYWGQGTLVTVSS"
  unit info: "s⁻¹"
  observed value: 0.00037
- binder: "VL1-VH2 humanized scFv (scFv, not shown: a dimerising Fc or GST, Crude scFv with Fc tag from HEK293 supernatant) scFv: DIVMTQTPLSLSVTPGQPASISCRSSQSLVHSNGNTYLHWYLQKPGQSPQLLIYKVSNRFSGVPDRFSGSGSGTDFTLKISRVEAEDVGVYYCSQNTHVPPTFGQGTKVEIKGGGGSGGGGSGGGGSQVQLVQSGAEVKKPGASVKVSCKASGYTFTDYEMHWVRQAPGQGLEWMGALDPKTGDTAYSQKFKGRVTLTADTSTSTVYMELSSLRSEDTAVYYCTRFYSYTYWGQGTLVTVSS"
  unit info: "s⁻¹"
  observed value: 0.00029
- binder: "VL1-VH2.M5 humanized scFv (scFv, not shown: a dimerising Fc or GST, Crude scFv with Fc tag from HEK293 supernatant) scFv: DIVMTQTPLSLSVTPGQPASISCRSSQSLVHSNGNTYLHWYLQKPGQSPQLLIYKVSNRFSGVPDRFSGSGSGTDFTLKISRVEAEDVGVYYCSQNTHVPPTFGQGTKVEIKGGGGSGGGGSGGGGSQVQLVQSGAEVKKPGASVKVSCKASGYTFTDYEMHWVRQAPGQGLEWMGALDPKTGDTAYSQKFQGRVTLTADTSTSTVYMELSSLRSEDTAVYYCTRFYSYTYWGQGTLVTVSS"
  unit info: "s⁻¹"
  observed value: 0.00027
- binder: "mouse anti-GPC3 GC33 scFv (VL-VH) (scFv, also called mouse scFv; not shown: C-terminal Fc tag (human Fc, used only for capture on the anti-human Fc chip) and any junction to it) scFv: DVVMTQTPLSLPVSLGDQASISCRSSQSLVHSNGNTYLHWYLQKPGQSPKLLIYKVSNRFSGVPDRFSGSGSGTDFTLKISRVEAEDLGVYFCSQNTHVPPTFGSGTKLEIKGGGGSGGGGSGGGGSQVQLQQSGAELVRPGASVKLSCKASGYTFTDYEMHWVKQTPVHGLKWIGALDPKTGDTAYSQKFKGKATLTADKSSSTAYMELRSLTSEDSAVYYCTRFYSYTYWGQGTLVTVSA"
  unit info: "s⁻¹"
  observed value: 0.00023
